Tested on: MV4-11 cells
assay-protocol: MTS cell viability assay, MV4-11
Type: cell-based, human
condition-info: MTS, 72 h; AML-FLT3-ITD (homozygous); supplement values ± SEM; listed as 10 (BPR1K871); read-out: MV4-11 EC50
Procedure: The MTS cell viability assay was conducted as previously described. […] Viable cells were quantified using the MTS method (Promega, Madison, WI, USA) according to the manufacturer's recommended protocol. Results were determined by measuring the absorbance at 490 nm using a plate reader (Victor2; PerkinElmer, Shelton, CT, USA).
observation-type: EC50 (nM)
A number alone suffices; assume nM.

Fill in: EC50 of CN(C)CCCOc1ccc2c(NCCc3cnc(NC(=O)Nc4cccc(Cl)c4)s3)ncnc2c1 [BPR1K871] is ___ 4

====

Tested on: MKN-45 cells
assay-protocol: Anti-proliferative activity, MKN-45
Format: cell-based
condition-info: Human Gastric Cancer
observation-type: pEC50
// pEC50 is dimensionless: -log10 of concentration (M)

Give the reported pEC50 for `CN(C)CCCOc1ccc2c(NCCc3cnc(NC(=O)Nc4cccc(Cl)c4)s3)ncnc2c1` (system: MKN-45 cells). 6.45

====

target-of-assay: AURKB (Homo sapiens, UniProt Q96GD4)
Sequence (Q96GD4 whole entry): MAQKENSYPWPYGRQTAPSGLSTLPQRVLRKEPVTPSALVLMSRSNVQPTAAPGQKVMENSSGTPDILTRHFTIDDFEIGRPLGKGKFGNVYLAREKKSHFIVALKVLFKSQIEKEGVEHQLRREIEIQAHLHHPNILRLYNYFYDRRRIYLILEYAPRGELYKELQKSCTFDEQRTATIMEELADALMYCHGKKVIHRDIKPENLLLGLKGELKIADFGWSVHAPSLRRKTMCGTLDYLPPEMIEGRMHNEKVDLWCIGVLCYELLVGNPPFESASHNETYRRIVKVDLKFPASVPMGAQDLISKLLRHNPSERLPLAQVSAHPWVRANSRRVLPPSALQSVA
observation-type: IC50
Reply with the number, then its unit.

Can you share its IC50? I mean this compound: `CN(C)CCCOc1ccc2c(NCCc3cnc(NC(=O)Nc4cccc(Cl)c4)s3)ncnc2c1` 13 nM

====

target-of-assay: CYP 2D6 (Homo sapiens, UniProt P10635)
Sequence (P10635 whole entry): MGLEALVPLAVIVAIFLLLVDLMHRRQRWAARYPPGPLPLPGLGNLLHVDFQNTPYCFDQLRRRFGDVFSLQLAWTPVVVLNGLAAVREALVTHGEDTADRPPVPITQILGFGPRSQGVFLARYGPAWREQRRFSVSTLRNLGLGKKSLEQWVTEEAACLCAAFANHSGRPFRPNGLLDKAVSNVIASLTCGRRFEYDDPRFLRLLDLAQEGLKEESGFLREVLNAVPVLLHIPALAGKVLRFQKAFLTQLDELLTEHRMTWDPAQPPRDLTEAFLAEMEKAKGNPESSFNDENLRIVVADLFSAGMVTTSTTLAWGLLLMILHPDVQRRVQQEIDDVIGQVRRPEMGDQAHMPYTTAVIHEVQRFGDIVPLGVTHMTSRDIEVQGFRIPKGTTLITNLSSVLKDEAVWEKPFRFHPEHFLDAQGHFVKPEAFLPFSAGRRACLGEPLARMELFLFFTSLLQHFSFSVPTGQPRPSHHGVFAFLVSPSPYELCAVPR
observation-type: IC50

Lab note: need IC50 for CN(C)CCCOc1ccc2c(NCCc3cnc(NC(=O)Nc4cccc(Cl)c4)s3)ncnc2c1 [BPR1K871] on CYP 2D6 (Homo sapiens, UniProt P10635), anyone have it? > 4 µM

====

Test system: MV4-11 cells
assay-protocol: MTS cell viability assay, MV4-11
Type: cell-based, human
condition-info: Homo sapiens, MV4-11, 72 h, read-out: MV4-11 EC50
observation-type: pEC50
Remember, pEC50 is on a log scale: it is -log10 of the molar concentration.

Which value of pEC50 has been reported for `CCN(CCCOc1ccc2c(Nc3cc(CC(=O)Nc4cccc(F)c4)n[nH]3)ncnc2c1)CCOP(=O)(O)O` in the records? 7.77

====

target-of-assay: AURKA (Homo sapiens)
Construct: recombinant GST-AURKA (residues Ser123-Ser401) containing the kinase domain; GST (N); made in house; host or cells: Sf9 insect cells
Sequence (O14965 123-401): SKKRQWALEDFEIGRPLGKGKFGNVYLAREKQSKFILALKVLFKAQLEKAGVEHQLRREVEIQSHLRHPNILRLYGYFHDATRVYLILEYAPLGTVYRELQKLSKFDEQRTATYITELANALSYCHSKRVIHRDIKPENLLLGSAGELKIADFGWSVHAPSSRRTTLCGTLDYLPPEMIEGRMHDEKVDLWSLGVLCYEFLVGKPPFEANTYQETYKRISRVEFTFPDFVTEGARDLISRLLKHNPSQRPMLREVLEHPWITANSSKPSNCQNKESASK
assay-protocol: AURKA inhibition assay (Kinase-Glo)
Assay type: biochemical
condition-info: mean of at least two independent experiments, within ±15%
Listing: IC50 of selected compounds
Dear colleague, please send the value followed by its unit.

Looking for the measured IC50 of `COCCOc1ccc2ncnc(NCCc3cnc(NC(=O)Nc4cccc(Cl)c4)s3)c2c1` , can you help? 10 nM

Which IC50 reading was recorded for the compound `Cc1ccc(Cl)cc1NC(=O)Nc1ncc(CCNc2ncnc3cc(OCCCN(C)C)ccc23)s1` ? 131 nM

Given the compound `CN(C)CCOc1ccc2c(NCCc3cnc(NC(=O)Nc4cccc(Cl)c4)s3)ncnc2c1` , what is its reported IC50? 17 nM

Which value of IC50 has been reported for `COc1ccc(Cl)cc1NC(=O)Nc1ncc(CCNc2ncnc3cc(OCCCN(C)C)ccc23)s1` in the records? 464 nM
